test: Pharmacokinetic test in mice (low dose); assay type: in vivo, Balb/c mice; details: mouse, in vivo; mice, IV 2 mg/kg; read-out: AUClast
Measured AUC(0-t) accompanies every entry in the list below.
Your answer is read as µM·h, so omit the unit and give the number.

{"smilesData": "Cc1ccc(Oc2ccc(C(F)(F)F)cc2)c2ccc(P(C)(C)=O)cc12", "AUC(0-t) (µM·h)": 22.1}

AUC(0-t) reported for this compound CP(C)(=O)c1ccc2c(c1)c1ccccc1n2-c1ccc(C(F)(F)F)cc1 : 30.7

AUC(0-t) reported for this compound Cn1cnc(-c2cc(P(C)(C)=O)ccc2Nc2ccc(C(F)(F)F)cc2)c1 : 21.2

AUC(0-t) reported for this compound CP(C)(=O)c1cnc(Nc2ccc(C(F)(F)F)cc2)c(-c2cn3c(n2)CCC3)c1 : 16.4

AUC(0-t) reported for this compound Cn1cnc(-c2cc(P(C)(C)=O)cnc2Nc2ccc(C(F)(F)F)cc2)c1 : 7.94

AUC(0-t) reported for this compound Cn1cc2c3cc(P(C)(C)=O)ccc3n(-c3ccc(C(F)(F)F)cc3)c2n1 : 5.44

AUC(0-t) reported for this compound CP(C)(=O)c1ccc2c(Oc3ccc(C(F)(F)F)cc3)cccc2c1 : 50.7

AUC(0-t) reported for this compound CP(C)(=O)c1cnc(Oc2ccc(C(F)(F)F)cc2)c(-c2cn3c(n2)CCC3)c1 : 5.74

====

assay: Pharmacokinetic test in mice (low dose); type: in vivo, Balb/c mice; conditions: mouse, plasma; mice, PO 10 mg/kg
Measured MRT accompanies every entry in the list below.
Your answer is read as h, so omit the unit and give the number.

Some entries whose results are on file:
{"molecule": "CP(C)(=O)c1ccc(Nc2ccc(C(F)(F)F)cc2)c(-c2ccccn2)c1 [Example 10]", "MRT / h": 75.6}
{"molecule": "CP(C)(=O)c1ccc2c(c1)c1ncccc1n2-c1ccc(C(F)(F)F)cc1 [Example 4]", "MRT / h": 5.3}

MRT reported for this molecule CP(C)(=O)c1ccc(Nc2ccc(C(F)(F)F)cc2)c(-c2ncccn2)c1 [Example 12] : 34.5

MRT reported for this molecule CP(C)(=O)c1ccc2c(c1)c1cccnc1n2-c1ccc(C(F)(F)F)cc1 [Example 5] : 5.3

====

system: YAP-TEAD transcription complex; assay: YAP-TEAD reporter gene assay (dual luciferase, stably transfected 293T cells); assay type: cell-based; conditions: Homo sapiens, HEK-293T, 24 h
property: IC50 (nM)
Your answer is read as nM, so omit the unit and give the number.

{"smilesData": "CP(C)(=O)c1cnc(Oc2ccc(C(F)(F)F)cc2)c(-c2cn3c(n2)CCC3)c1", "measuredTarget": "YAP-TEAD transcription complex", "recordedNumber": 160}
{"smilesData": "CP(C)(=O)c1ccc(Nc2ccc(C(F)(F)F)cc2)c(-c2cn3c(n2)CCC3)c1", "measuredTarget": "YAP-TEAD transcription complex", "recordedNumber": 7.46}
{"smilesData": "Cc1ccc(Oc2ccc(C(F)(F)F)cc2)c2ccc(P(C)(C)=O)cc12", "measuredTarget": "YAP-TEAD transcription complex", "recordedNumber": 135}

IC50 reported for this compound CP(C)(=O)c1ccc2c(Oc3ccc(C(F)(F)F)cc3)cccc2c1 : 4.09

====

experiment: Pharmacokinetic test in mice (low dose); type: in vivo, Balb/c mice; details: Balb/c, mouse, in vivo
property: bioavailability (%)
Your answer is read as %, so omit the unit and give the number.

{"compound": "CC(C)NC(=O)c1ccc2c(Oc3ccc(C(F)(F)F)cc3)cccc2c1 [Comparative compound B1, reference compound]", "bioavailability, %": 81}

Kindly review the next compound as well.
bioavailability reported for this compound CNS(=O)(=O)c1ccc2c(Oc3ccc(C(F)(F)F)cc3)cccc2c1 [Comparative compound B2, reference compound] : 87.5
